Molecular target: F876L mutant Androgen Receptor (AR-F876L) (Homo sapiens (Human), UniProt P10275, F877L)
Sequence (P10275 whole entry F877L): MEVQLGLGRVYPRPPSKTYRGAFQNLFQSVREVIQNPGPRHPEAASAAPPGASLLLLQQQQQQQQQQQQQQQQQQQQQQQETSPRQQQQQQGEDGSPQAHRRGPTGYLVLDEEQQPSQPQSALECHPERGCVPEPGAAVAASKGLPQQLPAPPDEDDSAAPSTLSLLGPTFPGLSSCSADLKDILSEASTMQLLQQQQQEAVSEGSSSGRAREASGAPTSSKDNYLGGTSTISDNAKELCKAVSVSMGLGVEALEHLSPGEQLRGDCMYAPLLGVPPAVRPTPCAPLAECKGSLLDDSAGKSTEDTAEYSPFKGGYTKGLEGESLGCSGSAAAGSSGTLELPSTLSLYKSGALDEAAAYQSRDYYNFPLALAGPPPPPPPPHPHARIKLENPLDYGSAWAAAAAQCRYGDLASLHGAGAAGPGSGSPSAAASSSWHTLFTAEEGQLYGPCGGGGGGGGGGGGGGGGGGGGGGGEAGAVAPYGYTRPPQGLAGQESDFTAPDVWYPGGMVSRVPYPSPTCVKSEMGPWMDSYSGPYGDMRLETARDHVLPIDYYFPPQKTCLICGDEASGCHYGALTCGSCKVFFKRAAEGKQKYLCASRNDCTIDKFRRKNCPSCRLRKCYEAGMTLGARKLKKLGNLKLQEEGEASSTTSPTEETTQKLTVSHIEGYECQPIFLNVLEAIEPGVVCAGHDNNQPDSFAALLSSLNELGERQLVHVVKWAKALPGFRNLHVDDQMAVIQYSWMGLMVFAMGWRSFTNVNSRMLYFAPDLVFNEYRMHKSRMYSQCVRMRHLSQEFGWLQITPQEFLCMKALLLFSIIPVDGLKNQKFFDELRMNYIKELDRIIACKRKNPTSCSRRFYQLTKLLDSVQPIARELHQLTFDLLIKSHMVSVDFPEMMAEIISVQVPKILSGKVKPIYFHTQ
Experiment: LNCaP-AR-F876L ANT reporter assay (antagonist mode)
Assay type: cell-based
Conditions: antagonist mode; pIC50 = −Log10(IC50 in Molar); read-out: LNCaP-AR-F876L ANT pIC50 (converted)
reportedMetric: IC50 (nM)

Worked cases, IC50 given:
compound=CCOC(=O)N1CCC(CNC(=O)c2ccc(N3C(=S)N(c4cnc(C#N)c(C(F)(F)F)c4)C(=O)C34CCC4)cc2)CC1 assayedsystem="F876L mutant Androgen Receptor (AR-F876L) (Homo sapiens (Human), UniProt P10275, F877L)" reportedmetric=IC50 testresult=56.2
compound=Cc1cc(N2C(=O)C3(CCC3)N(c3ccc(OC4CCSCC4)nc3)C2=S)cnc1C#N assayedsystem="F876L mutant Androgen Receptor (AR-F876L) (Homo sapiens (Human), UniProt P10275, F877L)" reportedmetric=IC50 testresult=309
compound=N#Cc1ncc(N2C(=O)C3(CCC3)N(c3ccc(C4=C[C@@H](O)[C@H](O)CO4)cc3)C2=S)cc1C(F)(F)F assayedsystem="F876L mutant Androgen Receptor (AR-F876L) (Homo sapiens (Human), UniProt P10275, F877L)" reportedmetric=IC50 testresult=282

I: N#Cc1ncc(N2C(=O)C3(CCC3)N(c3ccc(O[C@H]4CCNC[C@@H]4F)cc3)C2=S)cc1C(F)(F)F (racemic)
II: CC(C)(C)CCN1CCC(Oc2ccc(N3C(=S)N(c4cnc(C#N)c(C(F)(F)F)c4)C(=O)C34CCC4)cc2)CC1
Asked: Which entry shows the lesser value of IC50 here, I or II ? Which one? Tell me its label.
Given back: I
(I: 44.7 nM, II: 1260 nM)

###

Molecular target: F876L mutant Androgen Receptor (AR-F876L) (Homo sapiens (Human), UniProt P10275, F877L)
Assay: LNCaP-AR-F876L ANT reporter assay (antagonist mode)
Type: cell-based
Details: antagonist mode; pIC50 = −Log10(IC50 in Molar); read-out: LNCaP-AR-F876L ANT pIC50 (converted)
reportedMetric: IC50 (nM)

Worked cases, IC50 given:
compound="COCCn1cc2cc(N3C(=S)N(c4cnc(C#N)c(Cl)c4)C(=O)C34CCC4)ccc2n1 [Cpd 169]" testresult=112
compound="CC(C)(C)OC(=O)N1CCC(Cn2cc3cc(N4C(=S)N(c5cnc(C#N)c(C(F)(F)F)c5)C(=O)C45CCC5)ccc3n2)CC1 [Cpd 122]" testresult=282

P: CC(=O)N1CCC(n2cc3ccc(N4C(=S)N(c5cnc(C#N)c(C(F)(F)F)c5)C(=O)C45CCC5)cc3n2)CC1 [Cpd 198]
Q: Cc1cc(N2C(=O)C3(CCC3)N(c3ccc(OC4CCN(CC#N)CC4)nc3)C2=S)cnc1C#N [Cpd 90]
R: N#Cc1ncc(N2C(=O)C3(CCC3)N(c3ccc(OC4CCN(CC(F)(F)F)CC4)nc3)C2=S)cc1C(F)(F)F [Cpd 66]
S: C[N@+]1([O-])CC[C@H](Oc2ccc(N3C(=S)N(c4cnc(C#N)c(C(F)(F)F)c4)C(=O)C34CCC4)cc2)CC1 [Cpd 190]
Asked: Ascending by IC50, please. Show the ranking through the labels, in the order asked for.
Given back: R, Q, P, S
(R: 45.7 nM, Q: 67.6 nM, P: 562 nM, S: 1660 nM)

A: N#Cc1ncc(N2C(=O)C3(CCC3)N(C3CCC(NC(=O)c4ccccc4)CC3)C2=S)cc1C(F)(F)F (stereo not drawn) [Cpd 134]
B: CN1CCC[C@@H](CNC(=O)c2ccc(N3C(=S)N(c4cnc(C#N)c(C(F)(F)F)c4)C(=O)C34CCC4)cc2F)C1 [Cpd 200]
Asked: Which entry shows the lesser value of IC50 here, A or B ? Which one? Tell me its label.
Given back: A
(A: 339 nM, B: 794 nM)

P: Cc1cc(N2C(=O)C3(CCC3)N(c3ccc(-c4cn[nH]c4)cc3)C2=S)cnc1C#N [Cpd 3]
Q: Cc1cc(N2C(=O)C3(CCC3)N(c3ccc(OC4CCN(CCO)CC4)nc3)C2=S)cnc1C#N [Cpd 100]
R: COc1cc(N2C(=O)C3(CCC3)N(c3ccc(CN4CCNCC4)cc3)C2=S)cnc1C#N [Cpd 229]
Asked: Ascending by IC50, please. Show the ranking through the labels, in the order asked for.
Given back: Q, R, P
(Q: 58.9 nM, R: 129 nM, P: 324 nM)

I: CN1CC2CCC(C1)C2Oc1ccc(N2C(=S)N(c3cnc(C#N)c(C(F)(F)F)c3)C(=O)C23CCC3)cc1 (stereo not drawn) [Cpd 146]
II: CN1CC2CCC(C1)C2Oc1ccc(N2C(=S)N(c3cnc(C#N)c(C(F)(F)F)c3)C(=O)C23CCC3)cn1 (stereo not drawn) [Cpd 147]
III: CN1CCC(NC(=O)c2ccc(N3C(=S)N(c4cnc(C#N)c(C(F)(F)F)c4)C(=O)C34CCC4)cc2)C1 (stereo not drawn) [Cpd 192]
Asked: Given 3 compounds, produce a descending ranking by IC50. Show the ranking through the labels, in the order asked for.
Given back: III, II, I
(III: 692 nM, II: 209 nM, I: 61.7 nM)
